IC50 values for the molecules below.
Target: JAK1 (Homo sapiens (Human))
Sequence (P23458 whole entry): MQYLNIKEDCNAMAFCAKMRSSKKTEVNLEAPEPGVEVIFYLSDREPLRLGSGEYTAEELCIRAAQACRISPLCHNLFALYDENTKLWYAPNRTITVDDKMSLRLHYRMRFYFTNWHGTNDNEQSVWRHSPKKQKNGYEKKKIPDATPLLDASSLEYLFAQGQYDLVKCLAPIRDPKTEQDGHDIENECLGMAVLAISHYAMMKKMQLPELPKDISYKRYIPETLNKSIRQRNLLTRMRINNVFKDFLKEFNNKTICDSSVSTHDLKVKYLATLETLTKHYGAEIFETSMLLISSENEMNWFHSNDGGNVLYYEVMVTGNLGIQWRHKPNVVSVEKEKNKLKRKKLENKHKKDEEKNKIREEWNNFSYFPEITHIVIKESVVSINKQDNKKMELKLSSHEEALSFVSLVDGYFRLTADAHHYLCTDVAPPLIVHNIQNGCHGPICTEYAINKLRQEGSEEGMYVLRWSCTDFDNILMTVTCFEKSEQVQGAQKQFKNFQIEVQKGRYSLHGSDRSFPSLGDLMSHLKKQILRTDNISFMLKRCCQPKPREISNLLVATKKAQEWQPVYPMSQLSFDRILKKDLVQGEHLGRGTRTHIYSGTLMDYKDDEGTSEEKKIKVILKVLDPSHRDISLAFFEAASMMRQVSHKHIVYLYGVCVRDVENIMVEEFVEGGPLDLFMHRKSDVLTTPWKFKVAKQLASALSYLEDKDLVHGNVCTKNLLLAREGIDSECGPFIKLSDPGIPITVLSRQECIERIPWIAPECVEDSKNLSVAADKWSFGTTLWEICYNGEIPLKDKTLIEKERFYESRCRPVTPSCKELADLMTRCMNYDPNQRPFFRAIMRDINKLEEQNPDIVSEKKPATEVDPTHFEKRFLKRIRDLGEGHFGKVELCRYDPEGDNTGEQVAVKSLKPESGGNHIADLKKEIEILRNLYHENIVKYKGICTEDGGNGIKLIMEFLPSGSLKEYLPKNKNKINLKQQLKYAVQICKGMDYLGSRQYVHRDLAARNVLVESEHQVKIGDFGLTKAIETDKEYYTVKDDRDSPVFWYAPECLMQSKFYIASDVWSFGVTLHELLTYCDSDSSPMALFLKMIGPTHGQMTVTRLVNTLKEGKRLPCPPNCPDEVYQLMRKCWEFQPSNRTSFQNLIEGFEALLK
Assay: Analysis of JAK1 activity inhibition ability (ADP-Glo Kinase Assay)
Format: biochemical
Conditions: JAK1 enzyme, ADP-Glo luminescence, ATP 250 uM, IRS-itide substrate, 30° C. 40 minutes; read-out: IC50

molecule: CC1CN(C(=O)C(C#N)Cc2ccccc2)CC=C1c1cc(NC(=O)C2CC2)nc2[nH]ccc12 (stereo not shown)
targetEntity: JAK1 (Homo sapiens (Human))
IC50: 20 to 200 nM
//
molecule: O=C(Nc1cc(-c2ccc(NS(=O)(=O)c3ccc(F)c(F)c3)cc2C(F)(F)F)c2cc[nH]c2n1)C1CC1
targetEntity: JAK1 (Homo sapiens (Human))
IC50: 20 to 200 nM
//
molecule: O=C(Nc1cc(N2CC3CCC(C2)N3S(=O)(=O)CCCC(F)(F)F)c2cc[nH]c2n1)C1CC1
targetEntity: JAK1 (Homo sapiens (Human))
IC50: > 200 nM

Challenge: Please give measured IC50 of the following entry: `N#CC1(CS(=O)(=O)Nc2c(F)cc(-c3cc(NC(=O)C4CC4)nc4[nH]ccc34)cc2F)CC1`
Response given: 20 to 200 nM

meta.source: patent US11524968B2
